Target: PI3K alpha (Homo sapiens, UniProt P42336)
Construct: p85(iSH2) fusion partner (see partner chain) (N); His tag (C); Tn5 (Trichoplusia ni) or TiniPro insect cells
Sequence (P42336 with tags, fused parts or gaps limits assumed): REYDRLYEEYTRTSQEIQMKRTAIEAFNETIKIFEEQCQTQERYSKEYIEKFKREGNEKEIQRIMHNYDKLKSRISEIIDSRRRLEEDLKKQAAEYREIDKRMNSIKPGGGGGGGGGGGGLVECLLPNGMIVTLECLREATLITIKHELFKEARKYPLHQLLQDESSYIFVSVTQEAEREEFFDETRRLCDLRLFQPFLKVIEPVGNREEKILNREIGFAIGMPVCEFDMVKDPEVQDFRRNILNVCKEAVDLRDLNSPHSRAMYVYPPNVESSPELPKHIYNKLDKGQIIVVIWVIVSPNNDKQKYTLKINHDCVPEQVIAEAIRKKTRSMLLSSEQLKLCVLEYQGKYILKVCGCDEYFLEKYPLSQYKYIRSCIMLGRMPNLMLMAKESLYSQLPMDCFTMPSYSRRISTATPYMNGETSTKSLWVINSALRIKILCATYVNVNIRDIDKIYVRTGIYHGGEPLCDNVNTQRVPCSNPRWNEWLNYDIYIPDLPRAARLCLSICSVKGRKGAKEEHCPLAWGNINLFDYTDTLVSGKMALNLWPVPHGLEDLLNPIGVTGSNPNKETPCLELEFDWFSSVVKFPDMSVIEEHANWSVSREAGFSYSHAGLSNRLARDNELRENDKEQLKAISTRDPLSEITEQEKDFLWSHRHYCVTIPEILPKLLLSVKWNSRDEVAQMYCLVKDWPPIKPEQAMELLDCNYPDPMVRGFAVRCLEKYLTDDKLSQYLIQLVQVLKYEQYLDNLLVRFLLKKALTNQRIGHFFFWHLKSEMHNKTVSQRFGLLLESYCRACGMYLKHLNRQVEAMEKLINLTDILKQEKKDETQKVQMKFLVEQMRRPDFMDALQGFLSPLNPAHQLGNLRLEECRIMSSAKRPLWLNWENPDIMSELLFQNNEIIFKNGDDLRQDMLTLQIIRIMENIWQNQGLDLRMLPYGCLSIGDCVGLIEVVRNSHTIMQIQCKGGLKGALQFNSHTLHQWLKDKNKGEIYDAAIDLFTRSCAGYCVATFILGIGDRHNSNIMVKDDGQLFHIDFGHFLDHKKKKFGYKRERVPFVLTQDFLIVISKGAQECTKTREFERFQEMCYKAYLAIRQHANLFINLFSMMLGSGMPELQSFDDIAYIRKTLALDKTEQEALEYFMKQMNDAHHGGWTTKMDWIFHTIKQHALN
Experiment: PI3K alpha kinase assay (Kinase-Glo luminescence)
METRIC: IC50 (nM)

Solved cases (5 shown):
{"CHEMICAL_SMILES": "Cc1nn(C(C)C)cc1-n1c(=O)n(C)c2cnc3ccc(-c4cnc(N)c(C(F)(F)F)c4)cc3c21", "QUANTITATIVE_READOUT": 12}
{"CHEMICAL_SMILES": "CNc1ncc(-c2ccc3ncc4c(c3c2)n(-c2c(C)nn(C)c2C)c(=O)n4C)cc1F", "QUANTITATIVE_READOUT": 817}
{"CHEMICAL_SMILES": "Cc1nn(CC(=O)N(C)C)c(C)c1-n1c(=O)n(C)c2cnc3ccc(-c4ccccc4)cc3c21", "QUANTITATIVE_READOUT": 266}
{"CHEMICAL_SMILES": "CCn1cc(-n2c(=O)n(C)c3cnc4ccc(-c5cncc(C(C)(C)O)c5)cc4c32)c(C)n1", "QUANTITATIVE_READOUT": 6}
{"CHEMICAL_SMILES": "Cc1cc(-n2c(=O)n(C)c3cnc4ccc(-c5cnc(F)c(N)c5)cc4c32)n(C)n1", "QUANTITATIVE_READOUT": 63}

(a) COc1ccc(-c2ccc3ncc4c(c3c2)n(-c2cn(C)nc2C)c(=O)n4C)cn1
(b) CCOc1ccc(-c2ccc3ncc4c(c3c2)n(-c2c(C)nn(C)c2C)c(=O)n4C)cc1OC
Ask: Could you please tell me which of these two has the higher IC50: a or b ? Answer with the label corresponding to your selection.
Reply: b
(b: 38 nM, a: 17 nM)

(1) CCOc1ncc(-c2ccc3ncc4c(c3c2)n(-c2cn(C)nc2C)c(=O)n4C)cn1
(2) COCc1cc(-c2ccc3ncc4c(c3c2)n(-c2cn(C(C)C)nc2C)c(=O)n4C)cnc1N
(3) Cc1nn(C)cc1-n1c(=O)n(C)c2cnc3ccc(-c4cccc5c4OC(F)(F)O5)cc3c21
(4) Cc1nn(C)cc1-n1c(=O)n(C)c2cnc3ccc(-c4cc(O)cc(F)c4)cc3c21
Ask: Order by IC50, ascending. Could you list the labels in the order requested?
Reply: 3, 4, 2, 1

----------
Biological target: PI3K delta (Homo sapiens, UniProt O00329)
Construct: for the full-length p110-d subunit are generated and fused by overlapping PCR; p85(iSH2) fusion partner (see partner chain) (N); His tag (C); Tn5 (Trichoplusia ni) or TiniPro insect cells
Sequence (O00329 with tags, fused parts or gaps limits assumed): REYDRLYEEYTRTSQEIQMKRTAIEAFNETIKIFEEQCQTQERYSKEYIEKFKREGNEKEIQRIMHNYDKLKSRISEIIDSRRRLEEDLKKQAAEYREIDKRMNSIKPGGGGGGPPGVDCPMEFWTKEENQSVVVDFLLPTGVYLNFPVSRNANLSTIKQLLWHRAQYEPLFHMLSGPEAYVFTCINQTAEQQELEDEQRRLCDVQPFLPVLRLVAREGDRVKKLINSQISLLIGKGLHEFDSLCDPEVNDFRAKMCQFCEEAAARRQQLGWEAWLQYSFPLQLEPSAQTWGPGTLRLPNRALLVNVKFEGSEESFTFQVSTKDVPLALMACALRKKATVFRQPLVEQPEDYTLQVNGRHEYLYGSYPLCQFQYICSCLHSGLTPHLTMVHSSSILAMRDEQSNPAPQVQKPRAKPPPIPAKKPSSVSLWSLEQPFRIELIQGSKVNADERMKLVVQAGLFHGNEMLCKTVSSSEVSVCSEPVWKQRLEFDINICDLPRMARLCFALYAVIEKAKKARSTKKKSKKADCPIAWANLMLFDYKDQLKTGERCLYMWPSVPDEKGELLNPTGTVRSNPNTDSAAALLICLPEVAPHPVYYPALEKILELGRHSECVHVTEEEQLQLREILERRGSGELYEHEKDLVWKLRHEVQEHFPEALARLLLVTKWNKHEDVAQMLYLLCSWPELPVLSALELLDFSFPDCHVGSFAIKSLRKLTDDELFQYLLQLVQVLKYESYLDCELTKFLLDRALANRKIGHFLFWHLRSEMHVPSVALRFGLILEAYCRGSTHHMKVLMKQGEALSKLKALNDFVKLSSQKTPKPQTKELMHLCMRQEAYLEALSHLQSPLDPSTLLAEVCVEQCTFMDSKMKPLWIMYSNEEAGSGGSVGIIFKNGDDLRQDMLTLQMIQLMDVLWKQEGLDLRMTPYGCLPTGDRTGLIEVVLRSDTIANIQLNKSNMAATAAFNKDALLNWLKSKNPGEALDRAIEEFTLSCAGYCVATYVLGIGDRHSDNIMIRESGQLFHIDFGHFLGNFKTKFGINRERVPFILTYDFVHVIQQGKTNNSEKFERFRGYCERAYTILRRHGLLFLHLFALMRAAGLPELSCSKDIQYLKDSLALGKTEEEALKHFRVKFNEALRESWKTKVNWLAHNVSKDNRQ
Assay: PI3K delta kinase assay (Kinase-Glo luminescence)
Description: In a more preferred assay, the kinase reaction is performed in a final volume of 10 μL per well of a low volume non binding CORNING, 384 well black plate (Cat. No. #3676). The final concentrations of ATP and phosphatidyl inositol (PI) in the assay are 1 μM and 10 μg/mL respectively. […] IC50 is determined by a four parameter curve fitting routine that comes along with “excel fit”. […] Alternatively, IC50 values are calculated using idbsXLfit model 204, which is a 4 parameter logistic model.
METRIC: IC50 (nM)

{"CHEMICAL_SMILES": "Cc1nn(C(C)C)cc1-n1c(=O)n(C)c2cnc3ccc(-c4cnc5c(c4)COC(=O)N5C)cc3c21", "UNIT_ABBREV": "nM", "QUANTITATIVE_READOUT": 23}
{"CHEMICAL_SMILES": "CCn1cc(-n2c(=O)n(C)c3cnc4ccc(-c5cncc(N)c5)cc4c32)c(C)n1", "UNIT_ABBREV": "nM", "QUANTITATIVE_READOUT": 4}

(P) COC(C)(C)c1cncc(-c2ccc3ncc4c(c3c2)n(-c2cn(C)nc2C)c(=O)n4C)c1
(Q) CCOc1cc(-c2ccc3ncc4c(c3c2)n(-c2c(C)nn(C)c2C)c(=O)n4C)ccc1OC
Ask: Endpoint returns the identifier whose IC50 is numerically larger, either P or Q . Could you answer with the label of the item you picked?
Reply: Q

----------
Experiment: Solubility at pH 6.8
Assay type: physicochemical
Settings: pH 6.8, aqueous buffer, thermodynamic from solid; read-out: solubility
METRIC: solubility (µg/mL)

{"CHEMICAL_SMILES": "Cc1nn(C)cc1-n1c(=O)n(C)c2cnc3ccc(-c4ccc(N5CC[C@@H](O)C5)nc4)cc3c21", "UNIT_ABBREV": "µg/mL", "solubility": 55}

(A) Cc1noc(C)c1-n1c(=O)n(C)c2cnc3ccc(-c4cnc(N)c(Cl)c4)cc3c21
(B) CNc1ncc(-c2ccc3ncc4c(c3c2)n(-c2c(C)nn(C)c2C)c(=O)n4C)cc1Cl
(C) CNC(=O)c1cc(-c2ccc3ncc4c(c3c2)n(-c2cn(C(C)C)nc2C)c(=O)n4C)cnc1N
Ask: Arrange the 3 molecules from largest to smallest solubility. Kindly provide the labels arranged according to the requested ordering.
Reply: B, C, A

----------
Assay: Solubility at pH 6.8
Type: physicochemical
Details: pH 6.8, aqueous buffer, thermodynamic from solid; read-out: solubility
METRIC: solubility (µg/mL)

(A) Cc1nn(CC(=O)N(C)C)c(C)c1-n1c(=O)n(C)c2cnc3ccc(-c4cncc(OC5CCC5)c4)cc3c21
(B) CCOc1ccc(-c2ccc3ncc4c(c3c2)n(-c2cn(CC(=O)N3CCOCC3)nc2C)c(=O)n4C)cn1
(C) Cc1nn(C(C)C)cc1-n1c(=O)n(C)c2cnc3ccc(-c4ccc(N)nc4)cc3c21
(D) COc1ccc(-c2ccc3ncc4[nH]c(=O)n(-c5cc(C)nn5C)c4c3n2)cc1OC
Ask: Sort the listed entries by solubility, smallest first. Answer by naming the labels in the order asked.
Reply: D, B, C, A
(D: 5 µg/mL, B: 26 µg/mL, C: 45 µg/mL, A: 76 µg/mL)

----------
Target: PI3K delta (Homo sapiens)
Construct: for the full-length p110-d subunit are generated and fused by overlapping PCR; p85(iSH2) fusion partner (see partner chain) (N); His tag (C); Tn5 (Trichoplusia ni) or TiniPro insect cells
Experiment: PI3K delta kinase assay (Kinase-Glo luminescence)
METRIC: IC50 (nM)

{"MOLECULE": "COCCOc1cc(-c2ccc3ncc4c(c3c2)n(-c2cn(C)nc2C)c(=O)n4C)cnc1C [Example 86.2]", "QUANTITATIVE_READOUT": 6}

(P) Cc1nn(C(C)C)cc1-n1c(=O)n(C)c2cnc3ccc(-c4cncc(N)c4)cc3c21 [Example 45.3]
(Q) CCOc1ccc(-c2ccc3ncc4c(c3c2)n(-c2cn(CC(=O)N3CCOCC3)nc2C)c(=O)n4C)cn1 [Example 3.10]
(R) CCNc1ncc(-c2ccc3ncc4c(c3c2)n(-c2cn(C)nc2C)c(=O)n4C)cc1COCC [Example 167]
Ask: Give the ascending ranking of the items by reported IC50. Sort the labels as requested; that list is your answer.
Reply: P, R, Q
(P: 10 nM, R: 25 nM, Q: 431 nM)

(a) CCNc1cc(-c2ccc3ncc4c(c3c2)n(-c2c(C)nn(C)c2C)c(=O)n4C)cnc1Cl [Example 153.1]
(b) Cc1nn(C)cc1-n1c(=O)n(C)c2cnc3ccc(-c4cncc(C(C)(C)C#N)c4)cc3c21 [Example 220.1]
(c) CCn1nccc1-n1c(=O)n(C)c2cnc3ccc(-c4ccc(OC)nc4)cc3c21 [Example 2.6]
(d) COc1ncc(-c2ccc3ncc4c(c3c2)n(-c2cn(C)nc2C)c(=O)n4C)cc1C(N)=O [Example 125.2]
Ask: Sort the molecules on IC50; start with the lowest figure. Please list the labels according to the requested order.
Reply: a, b, d, c

----------
Tested on: PKB Ser473 phosphorylation in Rat1-myr-HA-p110 alpha cells
Assay: Reverse protein array assay, PKB Ser473 phosphorylation in Rat1-myr-p110 alpha cells
Type: cell-based
Settings: 0.5 h, pAkt Ser473, 30 minutes compound incubation, read-out: p-PKB IC50
pIC50: −log10 of the molar value.
METRIC: pIC50

Some solved cases for reference:
{"COMPOUND": "COc1ccc(-c2ccc3ncc4c(c3c2)n(-c2c(C)nn(C)c2C)c(=O)n4C)cn1 [Example 2.4]", "METRIC": "pIC50", "QUANTITATIVE_READOUT": 7.19}
{"COMPOUND": "COc1ncc(-c2ccc3ncc4c(c3c2)n(-c2cn(C)nc2C)c(=O)n4C)cc1NC(C)=O [Example 64]", "METRIC": "pIC50", "QUANTITATIVE_READOUT": 7.92}
{"COMPOUND": "Cc1nn(CC(=O)N2CCOCC2)cc1-n1c(=O)n(C)c2cnc3ccc(-c4cnc(N5CCCC5)nc4)cc3c21 [Example 247.3]", "METRIC": "pIC50", "QUANTITATIVE_READOUT": 6.76}
{"COMPOUND": "CCn1cc(-n2c(=O)n(C)c3cnc4ccc(-c5cnc(N(C)C)nc5)cc4c32)c(C)n1 [Example 6.4]", "METRIC": "pIC50", "QUANTITATIVE_READOUT": 7.38}
{"COMPOUND": "Cc1nn(C)cc1-n1c(=O)n(C)c2cnc3ccc(-c4cnc(F)c(N)c4)cc3c21 [Example 149.2]", "METRIC": "pIC50", "QUANTITATIVE_READOUT": 7.10}

(A) Cc1ncc(-c2ccc3ncc4c(c3c2)n(-c2cn(C)nc2C)c(=O)n4C)cc1NS(C)(=O)=O [Example 76]
(B) COC(C)(C)c1cncc(-c2ccc3ncc4c(c3c2)n(-c2cn(C)nc2C)c(=O)n4C)c1 [Example 239]
Ask: Hi, I'm comparing A with B and wondering which one has the bigger number for pIC50. Any idea? Please indicate the selected item by its label.
Reply: B
(B: 7.55, A: 6.74)
